Target: heteromeric KV7.2/KV7.3 channels (KCNQ2, KCNQ3) (Homo sapiens, UniProt O43525+O43526)
Assay: Automated patch-clamp (Sophion Qube 384) potency assay against KV7.2/KV7.3 channels
Details: CHO-K1/Kv7.2/Kv7.3 cells; EC50 from concentration-response of shift in Vhalf, 10 concentrations up to 30 μM; read-out: Kv7.2/7.3 EC50
Provide the recorded EC50 for the entries that follow.
Answers are plain numbers, in nM.

The cases that follow already have their EC50 on record.
O=C(NCCC1(C(F)(F)F)CC1)NCc1cc(OCc2ccccc2)ncn1 [Compound 11] : 1830
COc1ccc([C@H](NC(=O)NCc2ccnc(OCC(F)(F)F)c2)C(F)(F)F)cc1 [Compound 233] : 2520

Fill blank: measured EC50 of the compound O=C(NCCC1(C(F)(F)F)CC1)NCc1ccc(OCC(F)(F)F)nc1 [Compound 80] is ____.
3900

Data credit: patent US20260207563A1
